read-out: Human Leukocyte Antigen - DR isotype (HLADR), HLA-DRA (gene 3122); test: BSK_3C_HLADR: BioMAP Diversity Plus: 3C Assay for Human Leukocyte Antigen - DR isotype (HLADR) Biomarker Activity (AID 2283019); settings: primary human endothelial cells (HUVEC); actives raise or lower the signal
Active and inactive are the calls of the source. Rule for the calls: active = hit-call score of the fitted dose curve at least 0.9, where 1 is the maximum; inactive = score below 0.9.
Bench note: report the call from 1 (yes) (active), 0 (no) (inactive)

The examples below pair each entry with its known result.
molecule	answer-label
CC(C)c1ccc(C(=O)N=C(N)N)cc1S(C)(=O)=O	0 (no)
O=C(O)CCCCC(=O)O	0 (no)

What classification did CCc1c(C(=O)NN2CCCCC2)nn(-c2ccc(Cl)cc2Cl)c1-c1ccc(Br)cc1 end up with in this test? 1 (yes)
